// provenance: the RNAGym collection of RNA variant scans (doi:10.1101/gad.245936.114)

B1: tRNA (parent)
chain: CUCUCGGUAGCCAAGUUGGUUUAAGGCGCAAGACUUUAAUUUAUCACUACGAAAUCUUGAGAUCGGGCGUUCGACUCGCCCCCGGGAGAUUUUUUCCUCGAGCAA

Variants of: B1
protocol.summary: nonsense suppression (GFP-seq) (ratio to wild type); higher = more function; SUP4oc tRNA, yeast GFP reporter sort-seq
This sample holds only a part of the variants without activity.
Items are presented alongside their recorded nonsense suppression.
Respond with the number and no other words.

Here are 10 variants together with their reported answers.
U63G U71C; 0.028
U20A U63A; 0.187
A62U C75G; 0.201
C75A G78C; 1
A54U G67A; 0.0673
U21A; 1.02
U17A U63A U76C; 0.155
A60C A74G; 0.0424
C29U A33U; 0.0316
U4G A60U; 1.12

**Q:** Request the reported nonsense suppression associated with U20G A60G
**A:** 0.477

**Q:** Consider next the variant `A60C` in the same way.
**A:** 0.489
